System: 126254-015-R-J1-PDC complex spheroid growth, % test/control;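 also: spheroids exposed to compound for seven days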
Test: Anticancer human tumor 126254-015-R-J1-PDC patient-derived soft tissue sarcoma cell line growth inhibition [Asc]
Settings: curve of first compound; second compound 0.0316 µM
readout.name: pIC50
Quick note: pIC50 values are minus log10 of concentrations in mol/L.

Study these solved cases before continuing.
• Cc1nc(N2CCC3(CC2)COC(C)C3N)c(CO)nc1Sc1ccnc(N)c1Cl (stereo not given) + CNC(C)C(=O)NC1CN(S(=O)(=O)c2cccc(S(=O)(=O)N3CCC4CCC(C(=O)NC(c5ccccc5)c5ccccc5)N4C(=O)C(NC(=O)C(C)NC)C3)c2)CCC2CCC(C(=O)NC(c3ccccc3)c3ccccc3)N2C1=O = 6.05
• C=C(F)C(=O)N1CCN(c2nc(OCC3CCCN3C)nc3c2CCN(c2cccc4cccc(Cl)c24)C3)CC1CC#N (stereo not given) + CNC(C)C(=O)NC1CN(S(=O)(=O)c2cccc(S(=O)(=O)N3CCC4CCC(C(=O)NC(c5ccccc5)c5ccccc5)N4C(=O)C(NC(=O)C(C)NC)C3)c2)CCC2CCC(C(=O)NC(c3ccccc3)c3ccccc3)N2C1=O = 5.66

Here is the next item to consider.
**Query** Name the recorded pIC50 for NC(=O)C(=Cn1cnc(-c2cc(C(F)(F)F)cc(C(F)(F)F)c2)n1)c1cncnc1 + CNC(C)C(=O)NC1CN(S(=O)(=O)c2cccc(S(=O)(=O)N3CCC4CCC(C(=O)NC(c5ccccc5)c5ccccc5)N4C(=O)C(NC(=O)C(C)NC)C3)c2)CCC2CCC(C(=O)NC(c3ccccc3)c3ccccc3)N2C1=O .
**Result** 7.61
